Data origin: patent US20140107107A1

# Protocol Summary: oral exposure in the rat (pharmacokinetics)
# Type: in vivo, Hsd:Sprague Dawley rats
# Reported Conditions: female, Hsd:Sprague Dawley, plasma, 1 mg/kg intravenous
# Procedure: The oral bioavailability of three formulations of solid dispersions of compound (1-1) was determined in rats. […] The oral dosing solutions containing the 25% dispersion of compound (1-1) in PVP, the 25% dispersion of compound (1-1) in HPMCAS-MG, and the 50% dispersion of compound (1-1) in HPMCAS-MG were prepared by adding a pre-calculated amount of sterile water for injection to containers holding the dispersion using appropriate quantities to obtain a concentration of 0.75 mg/mL of compound (1-1). […]
Readout Label: MRT (h)
Numbers only; they are read as h.

Entry under test: Cc1sc2c(c1C)C(c1ccc(Cl)cc1)=N[C@@H](CC(=O)Nc1ccc(O)cc1)c1nnc(C)n1-2 [Compound (1-1), dihydrate] . Its MRT was 7.4

* * *

# Protocol Summary: oral exposure in the rat (pharmacokinetics)
# Type: in vivo, Hsd:Sprague Dawley rats
# Reported Conditions: female, Hsd:Sprague Dawley, plasma, 1 mg/kg intravenous
Readout Label: Cmax (ng/mL)
Reply numerically in ng/mL, unit not repeated.

For record Cc1sc2c(c1C)C(c1ccc(Cl)cc1)=N[C@@H](CC(=O)Nc1ccc(O)cc1)c1nnc(C)n1-2 [Compound (1-1), dihydrate] the listed Cmax is 730

* * *

# Protocol Summary: pharmacokinetics and oral bioavailability in dogs
# Type: in vivo
# Reported Conditions: male, beagle, dog, plasma, 1 mg/kg IV
Readout Label: half-life

Entry under test: Cc1sc2c(c1C)C(c1ccc(Cl)cc1)=N[C@@H](CC(=O)Nc1ccc(O)cc1)c1nnc(C)n1-2 [Compound (1-1), dihydrate] . Its half-life was 1.5 h
